Recorded EC50 for the following binders
Molecular target: T1, human PD-L2 (full-length, on cells) (human, UniProt Q9BQ51 20-273)
T1 chain: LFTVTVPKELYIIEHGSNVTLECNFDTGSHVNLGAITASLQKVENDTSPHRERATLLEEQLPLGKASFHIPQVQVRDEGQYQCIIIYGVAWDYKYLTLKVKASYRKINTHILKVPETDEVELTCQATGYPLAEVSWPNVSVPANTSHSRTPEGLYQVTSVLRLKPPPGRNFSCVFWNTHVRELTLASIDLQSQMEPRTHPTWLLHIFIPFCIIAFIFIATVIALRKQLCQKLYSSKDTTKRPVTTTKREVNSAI
Assay: FACS binding to CHO-K1 cells expressing human PD-L2

binder | EC50, nM
10D1-G1 N31Q.N92Q.LC (antibody, V domains shown, Optimized variant of 10D1-G1; also called 10D1-G1 N31Q.N920.LC) VH: QVQLQESGPGLVKPSGTLSLTCAVSGGSISSSYWWSWVRQPPGKGLEWIGEIFHIGSTNYNPSLRSRVTISVVKSKNQFSLNLNSVTAADTAVYFCARVSGGYGYFSGMDVWGQGTTVTVSS VL: DIQMTQSPSSLSASVGDRVTITCRASQGIRQDLGWYQQKPGKAPKRLIYGASSLQSGVPSRFSGSGSGTEFTLTISSLQPEDFATYYCLQHQSYPRTFGQGTKVEIK | 0.32
10A9-D2 (antibody, V domains shown, Both formats under this entry) VH: QVQLQESGPGLVKPSETLSLTCAVSGGSISSSYWWSWVRQPPGKGLEWVGEVFHVGVTNYNPSLKSRVTISVDKSKNQFSLKLTSVTAADTAVYYCARVTGTTGYYHGLDVWGQGTTVTVFS VL: DIQMTQSPSSLSASVGDRVTITCRASQGIRNDLGWYQQKPGKVPKRLIYAASSLQSGIPSRFSGSGSGTEFTLTISSLQPEDFATYYCLQHNNYPRTFGQGTKVEIK | 0.32
19B3-B3 (antibody, V domains shown, Both formats under this entry) VH: QVQLVQSGAEVKKPGASVKVSCMASGYTFTNYAIHWVRQAPGQRLEWMGWINTGLGKPKYSQMFQDRVTITRDTSASTASMELSGLRSDDTAVYYCARVGWELYFDYWGQGTLVTVSS VL: DIQMTQSPSTLSASVGDRVTITCRASQSISSLLAWYQQKPGKAPKLLIYKASSLESGVPSRFSGSGSGTEFTLTISSLQPDDFATYFCQQYNSYWTFGQGTKVEIK | 0.37
19B3-B3 M23K.M63L.HC (antibody, V domains shown, Optimized variant of 19B3-B3) VH: QVQLVQSGAEVKKPGASVKVSCKASGYTFTNYAIHWVRQAPGQRLEWMGWINTGLGKPKYSQLFQDRVTITRDTSASTASMELSGLRSDDTAVYYCARVGWELYFDYWGQGTLVTVSS VL: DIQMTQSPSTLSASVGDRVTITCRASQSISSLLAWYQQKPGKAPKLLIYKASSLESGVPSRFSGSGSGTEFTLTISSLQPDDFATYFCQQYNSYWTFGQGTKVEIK | 0.38

Just for reference, patent US20200369772A1 is where these values come from.
